target: L-lactate dehydrogenase (Plasmodium falciparum (isolate CDC / Honduras)); experiment: PfLDH activity inhibition – cell lysate, 3D7 strain, counter-screen for P. falciparum growth inhibition project (AID 2304);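 further: 0% = vehicle and 100% = reference inhibitor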; conditions: P. falciparum 3D7 crude extract, LDH APAD/NBT absorbance; at 2 µM; hits give high values
Please respond with reported inhibition for every item in the list.
Please respond with the number in % and leave the unit unwritten.

Prompt: Field request: inhibition | item: Fc1ccc2c(NN=Cc3ccccc3)ccnc2c1
Response: 2

Prompt: What do we get for FC(F)(F)c1ccc2nccc(NN=Cc3cccc(Cl)c3)c2c1 ?
Response: -8

Prompt: Subsequent entry: O=C(NCCCN1CCC(N2CCCCC2)CC1)c1ccc(N2CCOc3ccccc32)s1
Response: 4

Prompt: # repeat for Cc1c(CNCCCNc2nc3ccncc3[nH]2)sc(Br)c1Br
Response: 3

Prompt: Continue with COc1ccc2nccc(NN=Cc3cccc([N+](=O)[O-])c3)c2c1
Response: -8

Prompt: What would you report for O=C(/C=C/c1ccc(Cl)c(Cl)c1)NCCCCCN1CCC(NC(=O)c2ccc([N+](=O)[O-])cc2)CC1 ?
Response: -2

Prompt: Thanks! And CC(C)C[C@H](NC(=O)c1cc2ccccc2s1)C(=O)N[C@H]1CCN(Cc2ccc(OCCCN(C)C)c(Cl)c2)C1 ?
Response: 1

Prompt: Input CCCCCCOc1ccccc1C(=O)NCCOc1ccc(Cl)cc1
Response: 4

Prompt: Can you handle CCCCCC(C)C(C)c1cc(O)c2c(c1)OC(C)(C)CC2(O)c1ccccn1 (stereo not given) next?
Response: -5

Prompt: Also Cc1c(CNCCN2CCCCC2)c(C(=O)O)c(C)n1Cc1ccc(Cl)cc1 , if possible.
Response: -6

Prompt: Now consider CCCNCc1ccc(-c2ccc(CN(CCOC)C(=O)/C=C/c3ccccc3C)cc2)nc1 .
Response: 2

Prompt: How about COc1cc2nc(N(C)C)nc(Nc3ccc4c(cnn4Cc4ccccc4)c3)c2cc1OC ?
Response: -4

Prompt: # iterate: O=C(/C=C/c1ccc(Cl)c(Cl)c1)NCCCCCN1CCCN(C(=O)Nc2ccc(Br)cc2)CC1
Response: 0

Prompt: Please give the result for CCCC(C)Nc1nc(C)cc(N[C@@H](CC(C)C)C(=O)NC2CCCC2)n1 (stereo not given in full) too.
Response: -2

Prompt: Again, but for O=C(/C=C/c1ccc(C(F)(F)F)cc1)NCCCCCN1CCN(C(=O)Nc2ccc(F)c(Cl)c2)CC1
Response: -2

Prompt: What do you get for COc1ccc(NS(=O)(=O)c2cccc(C(=O)Nc3ccc(C(F)(F)F)cc3)c2)cc1N1CCN(CC(C)C)CC1 ?
Response: 2

Prompt: Now consider CCc1sc(-c2ccc(C(C)(C)C)cc2)nc1C(=O)NCCCN1CCCC1=O and answer again.
Response: -5

Prompt: Note, next up: COc1c(Br)cc(Br)cc1-c1ccc(CN2CC3CCC2CC3)[nH]1
Response: -3

Prompt: Same read-out for Brc1ccc(Nc2nc(NCC3CCCO3)c3ccccc3n2)cc1 (stereo not given) ?
Response: -3

Prompt: Check CCOC(=O)c1ccc(NC(=O)Nc2cccc(-c3ccc(-c4nc5ccc(F)cc5[nH]4)cc3)c2)cc1 too.
Response: 1

Prompt: Try the compound Cc1cc(C)cc(-n2c(C)cc(C=C3SC(=Nc4ccc(Cl)cc4)NC3=O)c2C)c1
Response: -7

Prompt: Could you do the same for CCn1ccc2c(N3CCCS3(=O)=O)cc(C(=O)N[C@@H](Cc3ccccc3)[C@H](O)CNC3CCCCC3)cc21 , please?
Response: 1

Prompt: What do you have for CCC[C@@H]([C@@H](CC1CCCCC1)C(=O)NC(C(=O)Nc1nccs1)C(CC)c1ccccc1)N(O)C=O (stereo not given in full) ?
Response: -4

Prompt: Also, CCCCCCCc1c(C)[nH]c2ccccc2c1=O please.
Response: -7

Prompt: Next up: CN(C)CCN(C)Cc1ccc(-c2ccc(NC(=O)c3cccc(Cl)c3)cc2)cc1
Response: 1

Measured values drawn from PubChem BioAssay for this set.
